These data points were gathered from patent US20220056094A1.

Entries annotated with measured EC50 (CTLL2 cell proliferation)
# target or test system: T1, high-affinity receptor IL-2Rα/β/γ on CTLL2 cells (mouse-derived cell line) (mouse, UniProt P01590 22-268; P16297 27-539; P34902 23-369)
# T1 sequence (looked up) 1: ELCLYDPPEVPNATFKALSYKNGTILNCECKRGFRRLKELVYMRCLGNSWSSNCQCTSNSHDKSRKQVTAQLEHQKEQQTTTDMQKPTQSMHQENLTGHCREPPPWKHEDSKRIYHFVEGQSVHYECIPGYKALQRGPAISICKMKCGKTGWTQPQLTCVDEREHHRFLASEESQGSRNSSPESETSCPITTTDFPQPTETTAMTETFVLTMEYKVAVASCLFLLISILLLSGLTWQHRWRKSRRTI
# T1 sequence (looked up) 2: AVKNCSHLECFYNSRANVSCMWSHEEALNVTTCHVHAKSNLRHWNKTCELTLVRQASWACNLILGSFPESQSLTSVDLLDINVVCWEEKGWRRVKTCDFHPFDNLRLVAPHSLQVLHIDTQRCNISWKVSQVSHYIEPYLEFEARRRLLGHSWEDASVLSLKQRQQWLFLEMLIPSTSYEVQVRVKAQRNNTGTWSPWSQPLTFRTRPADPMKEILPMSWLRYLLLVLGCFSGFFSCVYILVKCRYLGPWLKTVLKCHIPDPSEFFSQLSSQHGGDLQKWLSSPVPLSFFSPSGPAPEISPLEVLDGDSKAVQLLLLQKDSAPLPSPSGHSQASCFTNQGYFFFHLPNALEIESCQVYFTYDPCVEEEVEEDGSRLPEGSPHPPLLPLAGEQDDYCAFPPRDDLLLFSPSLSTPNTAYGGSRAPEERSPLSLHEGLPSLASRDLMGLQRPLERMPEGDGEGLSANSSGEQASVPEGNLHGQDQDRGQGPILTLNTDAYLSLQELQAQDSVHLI
# T1 sequence (looked up) 3: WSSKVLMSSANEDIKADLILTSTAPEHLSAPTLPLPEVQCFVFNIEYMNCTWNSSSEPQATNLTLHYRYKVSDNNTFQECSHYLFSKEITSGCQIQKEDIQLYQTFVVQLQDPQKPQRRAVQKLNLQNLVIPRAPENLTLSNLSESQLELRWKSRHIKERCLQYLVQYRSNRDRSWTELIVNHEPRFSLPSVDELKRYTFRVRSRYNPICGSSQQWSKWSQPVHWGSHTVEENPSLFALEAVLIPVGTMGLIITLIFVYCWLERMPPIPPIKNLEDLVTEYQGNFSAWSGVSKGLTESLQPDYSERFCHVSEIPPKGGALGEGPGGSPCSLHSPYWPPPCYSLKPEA
# protocol description: cell-based or functional assay
Please state the figure in nM; there is no need to write the unit.

Here are 3 binders together with their reported answers.
binder	units	EC50 (CTLL2 cell proliferation)
PEGylated IL-2-10 (ligand, mono-PEGylated with 20 kDa mPEG-butyraldehyde (sodium cyanoborohydride); site not stated, also called PEG-IL-2-10) MAPTSSSTKKTQLQLEHLLLDLQMILQGINSYKNPKLTRMLTAKFYMPKKATELKHLQCLEEELKPLEEVLNGAQSKNFHLRPRDLISNINVIVLELKGSETTFMCEYADETATIVEFLNRWITFAQSIISTLT	nM	35.3
PEGylated IL-2-22 (ligand, mono-PEGylated with 20 kDa mPEG-butyraldehyde (sodium cyanoborohydride); site not stated, also called PEG-IL-2-22) MAPTSSSTKKTQLQLEHLLLDLQMILQGISNYKNPKLTRMLTAKFYMPKKATELKHLQCLEEELKPLEEVLQGAQSKNFHLRPRDLISNINVIVLELKGSETTFMCEYADETATIVEFLNRWITFAQSIISTLT	nM	39.2
IL-2-10 (N26Q/N30S/F42A/L72G) (ligand, The entry already carries the mutations and C125A and begins with M. Made in E. coli) MAPTSSSTKKTQLQLEHLLLDLQMILQGINSYKNPKLTRMLTAKFYMPKKATELKHLQCLEEELKPLEEVLNGAQSKNFHLRPRDLISNINVIVLELKGSETTFMCEYADETATIVEFLNRWITFAQSIISTLT	nM	4.8

Consider now this further binder.
Fill blank: measured EC50 (CTLL2 cell proliferation) of the binder IL-2-22 (N26Q/N29S/F42A/N71Q/L72G) (ligand) MAPTSSSTKKTQLQLEHLLLDLQMILQGISNYKNPKLTRMLTAKFYMPKKATELKHLQCLEEELKPLEEVLQGAQSKNFHLRPRDLISNINVIVLELKGSETTFMCEYADETATIVEFLNRWITFAQSIISTLT is ____. 5.73
